# Subject of test: PDE10 (UniProt Q9Y233)
# Test: PDE10 enzyme inhibition, IMAP TR-FRET assay (MPDE10A7 Enzyme Activity and Inhibition)
# Assay type: biochemical
# Condition context: PDE10 enzyme inhibition; average IC50 data for each compound; read-out: Average IC50
pIC50: −log10 of the molar value.
Measured metric: pIC50

(P) COC(=O)C1(c2nccnc2Oc2ccc(Nc3nc4ccccc4s3)cc2)CCN(C(=O)OC(C)(C)C)CC1 [drawing 869]
(Q) O=C(c1ccc(Oc2nccnc2C2=CCOCC2)cc1)c1nc2ccccc2[nH]1
(R) Fc1cc(-c2nccnc2Oc2ccc(Nc3nc4ccccc4s3)c(F)c2)ccn1 [drawing 974]
(S) COc1ncc(-c2nccnc2Oc2ccc(Nc3nc4ccccc4s3)cc2)cn1 [drawing 783]
Query :: rank_up(items): orders items by reported pIC50 in ascending numerical order. Use the labels to give the requested order.
Result :: P, R, S, Q
(P: 6.61, R: 7.20, S: 7.63, Q: 8.47)
